Protocol Details: pharmacokinetic study of GJG-derived compounds in rat plasma (LC-MS/MS)
Format: in vivo
Cond: rat plasma after oral GJG 1.0 g/kg; mean ± S.D.

{"columns": ["Molecule", "Tmax (min)"],
 "data": [
  ["COC[C@@]12CC[C@H](OC)[C@]34C([C@H]([C@H](OC)[C@H]13)[C@]1(O)[C@H]3[C@@H](OC(=O)c5ccccc5)[C@](O)(C[C@H]34)[C@@H](OC)[C@@H]1O)N(C)C2 [Benzoylhypaconine, benzoylhypaconine]", 30],
  ["COC[C@]12CN(C)C3[C@@H]4[C@H](OC)[C@H]1[C@@]3([C@@H](OC)C[C@H]2O)[C@@H]1C[C@@]2(O)[C@H](OC(=O)c3ccccc3)[C@@H]1[C@]4(O)[C@@H](O)[C@@H]2OC [Benzoylmesaconine, benzoylmesaconine]", 26.4],
  ["CCN1C[C@]2(COC)[C@H](O)C[C@H](OC)C34C1C([C@H](OC)[C@@H]32)[C@]1(O)[C@@H]2[C@H]4C[C@@](O)([C@@H]2OC(=O)c2ccc(OC)cc2)[C@@H](OC)[C@@H]1O [14-Anisoylaconine, 14-anisoylaconine]", 18.6],
  ["CCN1C[C@]2(COC)[C@H](O)C[C@H](OC)[C@@]34[C@@H]5C[C@@]6(O)[C@H](OC(=O)c7ccccc7)[C@@H]5[C@@](O)([C@@H]([C@H](OC)[C@H]23)[C@@H]14)[C@@H](O)[C@@H]6OC [Benzoylaconine, benzoylaconine]", 30]
]}
